B1: C20orf112 (parent)
chain: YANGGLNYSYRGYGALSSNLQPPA

Variants of: B1
Assay: protein stability index of a GFP-peptide fusion (GPS, HEK-293T) (PSI 1-6); higher = more stable;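 further: lentivirally expressed fusions sorted by FACS into six bins by GFP to DsRed ratio, PSI derived from sequencing read proportions per bin multiplied by bin number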
Conditions: c terminus: a fixed tail appended
Quick reference for protein stability index among some variants
Returns: the value as a bare number; no unit string appended.

Previously resolved entries follow.
sequence string: YANGGLNYSYRGYGALSSNSQPPA [L20S]
protein stability index: 2.34
//
sequence string: YANGGCNYSYRGYGALSSNLQPPA [L6C]
protein stability index: 2.24
//
sequence string: LANGGLNYSYRGYGALSSNLQPPA [Y1L]
protein stability index: 2.67
//
sequence string: YANGGQNYSYRGYGALSSNLQPPA [L6Q]
protein stability index: 1.55
//
sequence string: YANGRLNYSYRGYGALSSNLQPPA [G5R]
protein stability index: 1.98

-- ask Entry YANGGLNYSYRGYGALSSNQQPPA [L20Q] has what protein stability index?
-- reply 1.71

-- ask Entry YAEGGLNYSYRGYGALSSNLQPPA [N3E] has what protein stability index?
-- reply 1.6

-- ask Entry YANGGLNYSYRGYGALSSNLQPPH [A24H] has what protein stability index?
-- reply 2.19

-- ask Entry YANGGLNYSYRGYGANSSNLQPPA [L16N] has what protein stability index?
-- reply 2.61

-- ask Entry YANQGLNYSYRGYGALSSNLQPPA [G4Q] has what protein stability index?
-- reply 2.06

-- ask Entry YANGGLNYSYRGYGALSSNLQGPA [P22G] has what protein stability index?
-- reply 2.65

-- ask Entry YANFGLNYSYRGYGALSSNLQPPA [G4F] has what protein stability index?
-- reply 1.42

-- ask Entry YANGGLNYSYRGYGALSSNYQPPA [L20Y] has what protein stability index?
-- reply 1.34

-- ask Entry YANGGLNYSYRGYGYLSSNLQPPA [A15Y] has what protein stability index?
-- reply 2.97

-- ask Entry PANGGLNYSYRGYGALSSNLQPPA [Y1P] has what protein stability index?
-- reply 2.43

-- ask Entry YANGGYNYSYRGYGALSSNLQPPA [L6Y] has what protein stability index?
-- reply 2.47

-- ask Entry YANGGLNYSYRGYGALSHNLQPPA [S18H] has what protein stability index?
-- reply 1.8

-- ask Entry YANGGLNYSYEGYGALSSNLQPPA [R11E] has what protein stability index?
-- reply 1.94
